Target: T1, recombinant rat MASP1 active protease (amino acids 302-704, C-terminal His Tag) (rat, UniProt Q8CHN8 302-704)
T1 sequence: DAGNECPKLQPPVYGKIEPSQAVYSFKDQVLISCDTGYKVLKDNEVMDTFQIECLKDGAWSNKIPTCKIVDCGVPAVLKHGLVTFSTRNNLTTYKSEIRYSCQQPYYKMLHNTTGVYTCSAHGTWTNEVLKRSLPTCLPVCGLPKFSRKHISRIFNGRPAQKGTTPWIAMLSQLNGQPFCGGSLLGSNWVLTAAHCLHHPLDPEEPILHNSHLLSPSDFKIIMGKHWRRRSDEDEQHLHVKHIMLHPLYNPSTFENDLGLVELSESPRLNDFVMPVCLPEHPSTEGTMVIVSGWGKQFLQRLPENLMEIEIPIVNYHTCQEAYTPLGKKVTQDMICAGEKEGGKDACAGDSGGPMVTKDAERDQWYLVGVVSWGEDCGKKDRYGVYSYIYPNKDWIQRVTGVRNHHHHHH
Experiment: cell-based or functional assay
Bridge positions count the residues as written; N and C are the ends. Square brackets hold non-standard residues; d marks the D form. Ends that are not written are not given here. tBuAla = CC(C)(C)C[C@H](N)C(=O)O; NMeC = CN[C@@H](CS)C(=O)O
MEASUREMENT KIND: rat MASP1 IC50 (nM)
Numbers only, in nM.

Record HICSRS[tBuAla]PPI[NMeC]I-NH2 (disulfide 3-11; N-terminus assumed; SMILES CC[C@H](C)[C@H](NC(=O)[C@@H]1CSSC[C@H](NC(=O)[C@@H](NC(=O)[C@@H](N)Cc2c[nH]cn2)[C@@H](C)CC)C(=O)N[C@@H](CO)C(=O)N[C@@H](CCCNC(=N)N)C(=O)N[C@@H](CO)C(=O)N[C@@H](CC(C)(C)C)C(=O)N2CCC[C@H]2C(=O)N2CCC[C@H]2C(=O)N[C@@H]([C@@H](C)CC)C(=O)N1C)C(N)=O) [Example 154: HIC+SRS-((tBu)A)-PPI-((N-Me)C)+I-NH2] , field rat MASP1 IC50: 72
